- PROTOCOL_NOTES: recombinant barcode read abundance after kanamycin selection (control-corrected) (log10(CPM+1)); higher = more efficient recombination; sequences stand for … in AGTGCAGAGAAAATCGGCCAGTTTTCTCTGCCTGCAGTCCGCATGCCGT…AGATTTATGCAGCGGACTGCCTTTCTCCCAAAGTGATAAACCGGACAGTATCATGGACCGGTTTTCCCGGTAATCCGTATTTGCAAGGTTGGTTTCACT; site = the 11-nt target;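 note: IS621 recombinase and bridge RNA in Escherichia coli cells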
MEASURED_QUANTITY: recombinant barcode read abundance (log10)
Kindly provide the number alone.

[Q] If you can, please state the reported recombinant barcode read abundance (log10) value of GAGTTCACTTGGGTTCTAACCTGTTGCCT (site GGGTTCACTCG) .
[A] 0.0995

[Q] Quick one: recombinant barcode read abundance (log10) of CCGCCCTCTTGGGTTCTAACCTGTTGCTT (site CCGCCCTCTAA) ?
[A] 0.291

[Q] recombinant barcode read abundance (log10) for CGAAGCTCTTGGGTTCTAACCTGTTGCCT (site CGGAGCTCTAG) ?
[A] 0.108

[Q] // returns reported recombinant barcode read abundance (log10) for input CACCACTCTTGGGTTCTAACCTGTTGCCT (site CACCACTCTAG)
[A] 1.56

[Q] Could you share which recombinant barcode read abundance (log10) value was measured for TTAGTAACTTGGGTTCTAACCTGTTGCCT (site TTAGTAACTAG) ?
[A] 1.21

[Q] Consider the sequence TCGAACCCTTGGGTTCTAACCTGTTGCGA (site TCGCACCCTTC) and give its measured recombinant barcode read abundance (log10).
[A] 0.0454

[Q] Item under review: GACTTACCTTGGGTTCTAACCTGTTGCCT (site GACATACCTAG) . Reported recombinant barcode read abundance (log10)?
[A] 0.134

[Q] // returns reported recombinant barcode read abundance (log10) for input ATTTGCACTTGGGTTCTAACCTGTTGCCT (site ATTTGCACTAG)
[A] 0.184

[Q] What value of recombinant barcode read abundance (log10) has been reported for the following sequence? GAGCTAGCTTGGGTTCTAACCTGTTGCGT (site GAGCTAGCTAC)
[A] 2.41

[Q] I'd like to know its recombinant barcode read abundance (log10). The sequence in question is GAGTGGCCTTGGGTTCTAACCTGTTGCAT (site GAGTGGCCTAC)
[A] 0.385

[Q] Param item = TAATGACCTTGGGTTCTAACCTGTTGCAT (site TAATGACCTAT) ; retrieve measured recombinant barcode read abundance (log10).
[A] 1.67

[Q] I would be grateful if you could share the reported recombinant barcode read abundance (log10) for TCCGGCGCTTGGGTTCTAACCTGTTGCGG (site TCCGGCGCTCC) .
[A] 1.75

[Q] // query recombinant barcode read abundance (log10) value for entry AACGTGTCTTGGGTTCTAACCTGTTGCCT (site AAAGTGTCTAG)
[A] 0.375

[Q] // lookup recombinant barcode read abundance (log10) for AATACTACTTGGGTTCTAACCTGTTGCCT (site AGTACTACTAG)
[A] 0.0104

[Q] Entry under review: AAGCAATCTTGGGTTCTAACCTGTTGCCT (site AAGCATTCTAG) . Reported recombinant barcode read abundance (log10)?
[A] 0.126

[Q] Look up recombinant barcode read abundance (log10) for this sequence: CTCTCCTCTTGGGTTCTAACCTGTTGCCT (site CTCTCCTCTAG)
[A] 1.28

[Q] State the recorded recombinant barcode read abundance (log10) for this entry: GAAACTCCTTGGGTTCTAACCTGTTGCCT (site GAAAATCCTAG)
[A] 0.13

[Q] Record request: recombinant barcode read abundance (log10) value, item GATTAGACTTGGGTTCTAACCTGTTGCCT (site CATTAGACTAG)
[A] 0.0591

[Q] If you can, please state the reported recombinant barcode read abundance (log10) value of TTGGCCGCTTGGGTTCTAACCTGTTGCCT (site TTGGTCGCTAG) .
[A] 0.148

[Q] Reported recombinant barcode read abundance (log10) for GGGCAGTCTTGGGTTCTAACCTGTTGCCG (site GGGCAGTCTCG) : what is it?
[A] 1.78

[Q] # get_value(readout='recombinant barcode read abundance (log10)', item= TAGGTGCCTTGGGTTCTAACCTGTTGCGG (site TAGGTGCCTCC) )
[A] 2.99

[Q] Which recombinant barcode read abundance (log10) is listed for CCGAAGCCTTGGGTTCTAACCTGTTGCCT (site CCGAAGCCTAG) ?
[A] 1.01

[Q] recombinant barcode read abundance (log10) lookup needed for CGGTCTGCTTGGGTTCTAACCTGTTGCAT (site CGGTCTGCTAT) , thanks.
[A] 0.826

[Q] Look at this sequence and give its reported recombinant barcode read abundance (log10). CACTAGCCTTGGGTTCTAACCTGTTGCGG (site CACTATCCTCC)
[A] 0.133

[Q] Value lookup for recombinant barcode read abundance (log10); key = TTAACTACTTGGGTTCTAACCTGTTGCTG (site TTAACTACTCA)
[A] 0.425

[Q] Given the entry AAGACAGCTTGGGTTCTAACCTGTTGCCT (site AAGAAAGCTAG) , report its measured recombinant barcode read abundance (log10).
[A] 0.403

[Q] Suppose we examine the sequence CTCATAACTTGGGTTCTAACCTGTTGCCG (site CTCATAACTCG) ; what recombinant barcode read abundance (log10) value has been reported?
[A] 0.328

[Q] Name the reported recombinant barcode read abundance (log10) value associated with the sequence GACGGCTCTTGGGTTCTAACCTGTTGCCT (site GCCGGCTCTAG)
[A] 0.365

[Q] Recorded recombinant barcode read abundance (log10) for GTTTCGGCTTGGGTTCTAACCTGTTGCCT (site GTTCCGGCTAG) , please?
[A] 0.357

[Q] // lookup recombinant barcode read abundance (log10) for AGATAGCCTTGGGTTCTAACCTGTTGCCT (site AGATAGCCTAG)
[A] 2.01

[Q] Any idea what its recombinant barcode read abundance (log10) is? The sequence is GCCATGACTTGGGTTCTAACCTGTTGCCT (site GCCATCACTAG)
[A] 0.0872

[Q] Entry under review: AGCAGAGCTTGGGTTCTAACCTGTTGCTG (site AGCAGAGCTCG) . Reported recombinant barcode read abundance (log10)?
[A] 0.133

[Q] recombinant barcode read abundance (log10) for CACTTACCTTGGGTTCTAACCTGTTGCCT (site CACTTAGCTAG) ?
[A] 0.00951

[Q] Can you share its recombinant barcode read abundance (log10)? I mean this sequence: TGATCTCCTTGGGTTCTAACCTGTTGCTT (site TGATCTCCTAA)
[A] 0.0107

[Q] What value of measured recombinant barcode read abundance (log10) is listed for GATACGCCTTGGGTTCTAACCTGTTGCCT (site GATACGCCTAG) ?
[A] 0.134

[Q] Can you look up the measured recombinant barcode read abundance (log10) of GTAACCTCTTGGGTTCTAACCTGTTGCCT (site GTAACCTCTCG) for me?
[A] 1.15

[Q] # query: recombinant barcode read abundance (log10) of entry GAGGCTACTTGGGTTCTAACCTGTTGCAT (site GAGGCTACTAT)
[A] 1.26

[Q] Which recombinant barcode read abundance (log10) is listed for GGGGCTTCTTGGGTTCTAACCTGTTGCTT (site GGGGCTTCTAA) ?
[A] 0.913

[Q] Requested read-out: recombinant barcode read abundance (log10). Entry: CGGGCCACTTGGGTTCTAACCTGTTGCGT (site CGGGCCACTAC)
[A] 2.99

[Q] Requested field: recombinant barcode read abundance (log10). Item: ATCAGGTCTTGGGTTCTAACCTGTTGCCT (site AACAGGTCTAG)
[A] 0.299

[Q] Look at this sequence and give its reported recombinant barcode read abundance (log10). AACAAGACTTGGGTTCTAACCTGTTGCCT (site GTACGACCTGT)
[A] 0.274

[Q] For the sequence ACAGCTTCTTGGGTTCTAACCTGTTGCCT (site ACAGCTACTAG) , what recombinant barcode read abundance (log10) is on record?
[A] 0.0838
